The measurements presented in this section are drawn from ChEMBL document CHEMBL5537178.

assay: Chemical stability of the compound in pH 7.4 aqueous solution assessed as degradation by measuring residual rate incubated for 24 hrs at 65 degC by HPLC analysis; assay type: physicochemical; conditions: read-out: Activity
Readout label: remaining at 24 h (%)
Quick note: give the figure in %, leave out the unit.

// query Supply recorded remaining at 24 h for "CC(C)(C)[C@H](NC(=O)[C@H](Cc1ccncc1)NC(=O)CNC(=O)CC[C@H](NS(=O)(=O)c1ccc(Cl)c(C(F)(F)F)c1)C(=O)O)C(=O)Nc1ccc(C(=O)N2CCC(C(=O)N[C@H](CCCNC(=N)N)C(=O)NCCN)CC2)cc1" here.
// result 88.7

// query Supply recorded remaining at 24 h for "CN(C)CCCC[C@H](NC(=O)CCN)C(=O)N1CCN(C(=O)c2ccc(NC(=O)[C@@H](NC(=O)[C@H](Cc3ccncc3)NC(=O)CNC(=O)CC[C@H](NS(=O)(=O)c3ccc(Cl)c(C(F)(F)F)c3)C(=O)O)C(C)(C)C)cc2)CC1" here.
// result 93.7

// query Supply recorded remaining at 24 h for "CC(C)(C)[C@H](NC(=O)[C@H](Cc1ccncc1)NC(=O)CNC(=O)CC[C@H](NS(=O)(=O)c1ccc(Cl)c(C(F)(F)F)c1)C(=O)O)C(=O)Nc1ccc(C(=O)N2CCN(C(=O)[C@@H](N)CCCN)CC2)cc1" here.
// result 58.7

// query Supply recorded remaining at 24 h for "CC(C)(C)[C@H](NC(=O)[C@H](Cc1ccncc1)NC(=O)CNC(=O)CC[C@H](NS(=O)(=O)c1ccc(Cl)c(C(F)(F)F)c1)C(=O)O)C(=O)Nc1ccc(C(=O)N2CCC(C(=O)N[C@H](CCCCN)C(=O)NCCN)CC2)cc1" here.
// result 90.5

// query Supply recorded remaining at 24 h for "CC(C)(C)[C@H](NC(=O)[C@H](Cc1ccncc1)NC(=O)CNC(=O)CC[C@H](NS(=O)(=O)c1ccc(Cl)c(C(F)(F)F)c1)C(=O)O)C(=O)Nc1ccc(C(=O)NCC2(N)CCNCC2)cc1" here.
// result 86.4

// query Supply recorded remaining at 24 h for "CC(C)(C)[C@H](NC(=O)[C@H](Cc1ccncc1)NC(=O)CNC(=O)CC[C@H](NS(=O)(=O)c1ccc(Cl)c(C(F)(F)F)c1)C(=O)O)C(=O)Nc1ccc(C(=O)N2CCC(C(=O)N[C@H](CCCCN)C(=O)N3C[C@@H](N)C[C@H]3C(N)=O)CC2)cc1" here.
// result 96.2

// query Supply recorded remaining at 24 h for "CC(C)(C)[C@H](NC(=O)[C@H](Cc1ccncc1)NC(=O)CNC(=O)CC[C@H](NS(=O)(=O)c1ccc(Cl)c(C(F)(F)F)c1)C(=O)O)C(=O)Nc1ccc(C(=O)N2CCC(C(=O)N[C@H](CCCCN)C(=O)N3CC[C@H](N)C3)CC2)cc1" here.
// result 97.9
